ASSAYED SYSTEM: GID4 (Uniprot ID: Q81VV7, residues 124-289) (Homo sapiens, UniProt Q8IVV7)
Sequence (Q8IVV7 124-289): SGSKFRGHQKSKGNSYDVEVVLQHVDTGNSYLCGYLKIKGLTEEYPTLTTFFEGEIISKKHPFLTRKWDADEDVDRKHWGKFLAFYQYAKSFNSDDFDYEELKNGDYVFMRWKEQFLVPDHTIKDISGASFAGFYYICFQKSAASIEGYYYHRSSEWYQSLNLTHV
MEASURED PARAMETER: IC50

Some solved cases for reference:
GET /values?readout=IC50&item= CNc1cc(N2CCC[C@@H](c3ccccc3Br)C2)nc(N)n1 (stereo in doubt)
< 500 nM

Sample CC(C)c1cc(N2CCCC(c3nc4ccccc4[nH]3)C2)nc(N)n1 (stereo not shown) — what was its IC50?
> 5000 nM

Find the recorded IC50 belonging to `CN(C)CCCNC(=O)c1c(F)cc(-c2cc(O)c3ncccc3c2)cc1F` and report it.
500 to 5000 nM

Now turn to the next compound.
Look up IC50: `Nc1nccc2ccc(-c3ccc4[nH]nc(C(=O)N5CCC(N)CC5)c4c3)cc12`
< 500 nM

###

ASSAYED SYSTEM: GID4 (Uniprot ID: Q81VV7, residues 124-289) (Homo sapiens, UniProt Q8IVV7)
Sequence (Q8IVV7 124-289): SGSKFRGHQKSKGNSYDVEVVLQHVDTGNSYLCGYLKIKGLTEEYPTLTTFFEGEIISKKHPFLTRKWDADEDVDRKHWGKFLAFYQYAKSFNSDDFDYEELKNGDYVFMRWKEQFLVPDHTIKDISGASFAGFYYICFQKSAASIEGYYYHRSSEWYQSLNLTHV
IC50 for assorted molecules

# IC50 lookup, item Nc1nc2c(c(N3CCNC(c4ccccc4Br)C3)n1)COCC2 (centres unmarked)
0.5 to 5 µM

For `Nc1nccc2ccc(-c3csc(C(=O)N4CCCC4)c3)cc12` , what is its reported IC50?
> 5 µM

Can you look up the measured IC50 of `CN(C)CCCNC(=O)c1ccc(-c2cc(O)c3c(c2)CCCN3)cc1` for me?
> 5 µM

Which IC50 value is on record for `Nc1nccc2ccc(-c3ccc4[nH]nc(C(=O)NC[C@H]5CC[C@@H](O)CC5)c4c3)cc12` ?
< 0.5 µM

Continuing:
Which IC50 reading was recorded for the molecule Cc1c(-c2ccc(Br)c(C3CN(c4cc(C(C)C)nc(N)n4)CCN3)c2)cnn1C (single isomer, unassigned) ?
0.5 to 5 µM

###

ASSAYED SYSTEM: GID4 (Uniprot ID: Q81VV7, residues 124-289) (Homo sapiens, UniProt Q8IVV7)
Construct: GID4 (Uniprot ID: Q81VV7, residues 124-289)
TEST DETAILS: GID4 competitive binding assay (AlphaScreen, GID4/degron peptide PGLW)
ASSAY CONTEXT: 24 nM GID4, 48 nM biotinylated degron peptide PGLW, 4° C., read-out: IC50 (Inhibition of GID4/Degron binding by test compounds)
pIC50: −log10 of the molar value.
MEASURED PARAMETER: pIC50

Recorded pIC50, per entry:
For the compound shown here, CNc1cc(N2CCNC(c3ccccc3)C2)nc(N)n1 (single isomer, unassigned) , give the reported pIC50.
< 5.30

What measured pIC50 goes with Nc1nc(C2CC2)cc(N2CCN[C@H](c3ccccc3Br)C2)n1 (stereo in doubt) ?
5.30 to 6.30

Using the record for `CN(C)C1CCN(C(=O)c2n[nH]c3ccc(-c4ccc5ccnc(N)c5c4)cc23)CC1` , report its pIC50.
> 6.30

For CNc1cc(N2CCCC(c3cnc4ccccn34)C2)nc(NC)n1 (racemic) [Compound 123] , what is its reported pIC50?
5.30 to 6.30

***
Any idea what its pIC50 is? The compound is CNC(=O)c1ccc2nnc(C3CCCN(c4cc(C(C)C)nc(N)n4)C3)n2c1 (stereo not drawn)
< 5.30

// lookup pIC50 for CC(C)c1cc(N2CCN[C@@H](c3cc(C(F)(F)F)ccc3Br)C2)nc(N)n1 (racemic)
5.30 to 6.30

What does the record list as pIC50 for `CN(C)CCNC(=O)c1n[nH]c2ccc(-c3ccc4ncnc(N)c4c3)cc12` ?
5.30 to 6.30

Requested field: pIC50. Item: `Cc1cc(-c2cc(O)c3ncccc3c2)ccc1C(=O)NCCCN(C)C`
5.30 to 6.30

Form field: reported pIC50 of `CN(C)[C@H]1C[C@H](NC(=O)c2ccc(-c3cc(O)c4ncccc4c3)cc2)C1`
> 6.30
